These measurements were taken from patent US20220162215A1.

Test system: HeLa MKYP cells
Test: Toxicity / cell death measured by DAPI staining (take-up)
Format: cell-based
Details: Table 1; 50 μM
parameter-measured: Toxicity (% positive for DAPI take-up @ 50 μM) (%)
I only need the number, in %, no unit after it.

Below, each entry is followed by its recorded Toxicity (% positive for DAPI take-up @ 50 μM) result.
{"compound": "CCCCNc1ncnc2[nH]c(-c3ccnn3C)cc12", "numeric-value": 94.6}
{"compound": "CCCCNc1ncnc2[nH]c(C(F)(F)F)cc12", "numeric-value": 4.6}
{"compound": "CCCCNc1ncnc2[nH]c(C(OCC)C(F)(F)F)cc12 (centres unmarked) [Compound 3]", "numeric-value": 15.8}
{"compound": "CCCCNc1ncnc2[nH]c(C(OCC)C(F)(F)F)cc12 (centres unmarked) [Compound 5]", "numeric-value": 47.4}
{"compound": "CCCCNc1ncnc2[nH]c(-c3ccccc3)cc12", "numeric-value": 90.0}

Which Toxicity (% positive for DAPI take-up @ 50 μM) is reported for this compound? `CCCCNc1ncnc2[nH]c(C)cc12`
15.4

Which Toxicity (% positive for DAPI take-up @ 50 μM) is reported for this compound? `CCCCNc1ncnc2[nH]c(CC(F)(F)F)cc12`
24.8

Which Toxicity (% positive for DAPI take-up @ 50 μM) is reported for this compound? `CCCCNc1ncnc2[nH]c(CC)cc12`
93.4

* * *

Assay: In vivo summary, pharmacokinetics, rat
Details: in vivo, IV at 1 mg/kg, Table 8A
Procedure: Referring to Tables 8A-C below, an in vivo summary of EP-0035985 IV at 1 mg/kg (8A), PO 10 mg/kg (8B), and a tissue distribution, mouse (8C) is shown below.
parameter-measured: AUC (ng·h/mL)
I only need the number, in ng·h/mL, no unit after it.

Which AUC is reported for this compound? FC(F)(F)c1cc2c(NC3CCCc4ccccc43)ncnc2[nH]1 (stereo not shown)
838

* * *

Tested on: HeLa MKYP cells
Experiment: Toxicity / cell death measured by DAPI staining (take-up)
Assay type: cell-based
Conditions: Table 3 Supplement B; 25 μM, no FO
parameter-measured: Cell death at 25 μM (no FO) (%)
I only need the number, in %, no unit after it.

Below, each entry is followed by its recorded Cell death at 25 μM (no FO) result.
{"molecule": "OC[C@@H]1CCc2ccccc2[C@H]1Nc1ncnc2[nH]c(C(F)(F)F)cc12", "numeric-value": 27}
{"molecule": "OC1CCc2ccccc2C1Nc1ncnc2[nH]c(C(F)(F)F)cc12 (centres unmarked)", "numeric-value": 3.79}
{"molecule": "O[C@@H]1Cc2ccccc2[C@H]1Nc1ncnc2[nH]c(C(F)(F)F)cc12", "numeric-value": 2.35}
{"molecule": "CO[C@@H]1CCc2ccccc2[C@H]1Nc1ncnc2[nH]c(C(F)(F)F)cc12", "numeric-value": 15.3}
{"molecule": "C[C@@H]1CCc2ccccc2[C@H]1Nc1ncnc2[nH]c(C(F)(F)F)cc12", "numeric-value": 17.9}
{"molecule": "CC(=O)N1CCC(Nc2ncnc3[nH]c(C(F)(F)F)cc23)c2ccccc21 (centres unmarked)", "numeric-value": 2.69}
{"molecule": "CN1CC[C@H](Nc2ncnc3[nH]c(C(F)(F)F)cc23)c2ccccc21", "numeric-value": 2.51}

Consider the record given below.
Which Cell death at 25 μM (no FO) is reported for this molecule? `O[C@H]1Cc2ccccc2[C@@H]1Nc1ncnc2[nH]c(C(F)(F)F)cc12`
2.51
